Could you please report measured IC50 for the items listed next?
# Test system: HeLa
# measurement_notes: Cytotoxicity against human HeLa S3 cells
# Format: functional, cell-based
Answers are plain numbers, in mg/L.

Here is how some compounds turned out for IC50.
CC/C=C(\C)[C@H]1OC(=O)[C@H](C)N(C)C(=O)[C@H](C(C)C)NC(=O)CN(C)C(=O)[C@@H](CC(C)C)N(C)C(=O)[C@H](C(C)C)NC(=O)[C@@H]([C@@H](C)CC)OC(=O)/C(C)=C/C[C@H](OC(=O)CCCCCNC(=O)CCC(=O)O)[C@@H]1C: 0.14
CC/C=C(\C)[C@H]1OC(=O)[C@H](C)N(C)C(=O)[C@H](CCCCNC(=O)OC(C)(C)C)NC(=O)CN(C)C(=O)[C@@H](CC(C)C)N(C)C(=O)[C@H](C(C)C)NC(=O)[C@@H]([C@@H](C)CC)OC(=O)/C(C)=C/C[C@H](O)[C@@H]1C: 0.26
CC/C=C(\C)[C@H]1OC(=O)[C@H](C)N(C)C(=O)[C@H](C(C)C)NC(=O)CN(C)C(=O)[C@@H](CC(C)C)N(C)C(=O)[C@H](C(C)C)NC(=O)[C@@H]([C@@H](C)CC)OC(=O)/C(C)=C/CC[C@@H]1C [DEOXYAURILIDE]: 0.017
CC/C=C(\C)[C@H]1OC(=O)[C@H](C)N(C)C(=O)[C@H](C(C)C)NC(=O)CN(C)C(=O)[C@@H](CC(C)C)N(C)C(=O)[C@H](C(C)C)NC(=O)[C@@H]([C@@H](C)CC)OC(=O)/C(C)=C/C[C@H](OC(=O)CCCCCNC(=O)OCC2c3ccccc3-c3ccccc32)[C@@H]1C: 0.42
CC/C=C(\C)[C@H]1OC(=O)[C@H](C)N(C)C(=O)[C@H](C(C)C)NC(=O)CN(C)C(=O)[C@@H](CC(C)C)N(C)C(=O)[C@H](C(C)C)NC(=O)[C@@H]([C@@H](C)CC)OC(=O)/C(C)=C/C[C@H](O)[C@@H]1C [AURILIDE]: 0.0024

// input: 2 compounds below; output: IC50 for each
1. CC/C=C(\C)[C@H]1OC(=O)[C@H](CCCCNC(=O)OC(C)(C)C)N(C)C(=O)[C@H](C(C)C)NC(=O)CN(C)C(=O)[C@@H](CC(C)C)N(C)C(=O)[C@H](C(C)C)NC(=O)[C@@H]([C@@H](C)CC)OC(=O)/C(C)=C/C[C@H](O)[C@@H]1C
2. CC/C=C(\C)[C@H]1OC(=O)[C@H](C)N(C)C(=O)[C@H](C(C)C)NC(=O)CN(C)C(=O)[C@@H](CC(C)C)N(C)C(=O)[C@H](CCCCNC(=O)OC(C)(C)C)NC(=O)[C@@H]([C@@H](C)CC)OC(=O)/C(C)=C/C[C@H](O)[C@@H]1C

0.02
0.032

Where do these numbers come from? They come from ChEMBL document CHEMBL1155095.
